System: Candida albicans
Test: Antifungal activity against Candida albicans ATCC 90023 incubated for 48 hrs by two-fold broth dilution analysis
Format: functional
compounds and their reported MIC
PROPERTY_MEASURED: MIC

[
  {
    "COMPOUND": "O=C(/C=C/C(=O)NC1Cc2ccccc2NC1=O)Nc1ccccc1Br (stereo unspecified)",
    "MEASURED_RESULT": "2 µg/mL"
  },
  {
    "COMPOUND": "O=C(/C=C/C(=O)NC1Cc2ccccc2NC1=O)Nc1ccc(Br)cc1 (stereo unspecified)",
    "MEASURED_RESULT": "2 µg/mL"
  },
  {
    "COMPOUND": "COc1ccccc1NC(=O)/C=C/C(=O)NC1Cc2ccccc2NC1=O (stereo unspecified)",
    "MEASURED_RESULT": "1 µg/mL"
  },
  {
    "COMPOUND": "Cc1cc(C)cc(NC(=O)/C=C/C(=O)NC2Cc3ccccc3NC2=O)c1 (stereo unspecified)",
    "MEASURED_RESULT": "2 µg/mL"
  },
  {
    "COMPOUND": "Cc1ccc(NC(=O)/C=C/C(=O)NC2Cc3ccccc3NC2=O)cc1 (stereo unspecified)",
    "MEASURED_RESULT": "2 µg/mL"
  },
  {
    "COMPOUND": "NC(=O)OC[C@H](O)[C@@H](O)[C@H](N)C(=O)N[C@H](C(=O)O)[C@H]1O[C@@H](n2cc(CO)c(=O)[nH]c2=O)[C@H](O)[C@@H]1O",
    "MEASURED_RESULT": "4 µg/mL"
  },
  {
    "COMPOUND": "O=C(/C=C/C(=O)NC1Cc2ccccc2NC1=O)Nc1ccc(Cl)cc1 (stereo unspecified)",
    "MEASURED_RESULT": "2 µg/mL"
  },
  {
    "COMPOUND": "O=C(/C=C/C(=O)NC1Cc2ccccc2NC1=O)Nc1cccc2ccccc12 (stereo unspecified)",
    "MEASURED_RESULT": "2 µg/mL"
  },
  {
    "COMPOUND": "O=C(/C=C/C(=O)NC1Cc2ccccc2NC1=O)Nc1ccc(F)c(F)c1 (stereo unspecified)",
    "MEASURED_RESULT": "2 µg/mL"
  },
  {
    "COMPOUND": "O=C(/C=C/C(=O)NC1Cc2ccccc2NC1=O)Nc1ccccc1Cl (stereo unspecified)",
    "MEASURED_RESULT": "2 µg/mL"
  },
  {
    "COMPOUND": "Cc1cccc(NC(=O)/C=C/C(=O)NC2Cc3ccccc3NC2=O)c1 (stereo unspecified)",
    "MEASURED_RESULT": "1 µg/mL"
  },
  {
    "COMPOUND": "O=C(/C=C/C(=O)NC1Cc2ccccc2NC1=O)Nc1cccc(Br)c1 (stereo unspecified)",
    "MEASURED_RESULT": "1 µg/mL"
  },
  {
    "COMPOUND": "COc1ccc(NC(=O)/C=C/C(=O)NC2Cc3ccccc3NC2=O)cc1 (stereo unspecified)",
    "MEASURED_RESULT": "1 µg/mL"
  },
  {
    "COMPOUND": "O=C(/C=C/C(=O)NC1Cc2ccccc2NC1=O)Nc1ccccc1F (stereo unspecified)",
    "MEASURED_RESULT": "4 µg/mL"
  },
  {
    "COMPOUND": "OC(Cn1cncn1)(Cn1cncn1)c1ccc(F)cc1F",
    "MEASURED_RESULT": "1 µg/mL"
  },
  {
    "COMPOUND": "O=C(/C=C/C(=O)NC1Cc2ccccc2NC1=O)Nc1cccc([N+](=O)[O-])c1 (stereo unspecified)",
    "MEASURED_RESULT": "2 µg/mL"
  }
]

---

System: Cryptococcus neoformans
Experiment: Antifungal activity against Cryptococcus neoformans ATCC 32719 incubated for 48 hrs by two-fold broth dilution analysis
Type: functional
PROPERTY_MEASURED: MIC (µg/mL)

[
  {
    "COMPOUND": "O=C(/C=C/C(=O)NC1Cc2ccccc2NC1=O)Nc1ccc([N+](=O)[O-])cc1 (stereo not given)",
    "MEASURED_RESULT": 8
  },
  {
    "COMPOUND": "O=C(/C=C/C(=O)NC1Cc2ccccc2NC1=O)Nc1ccc(F)c(F)c1 (stereo not given)",
    "MEASURED_RESULT": 16
  },
  {
    "COMPOUND": "O=C(/C=C/C(=O)NC1Cc2ccccc2NC1=O)Nc1ccccc1Cl (stereo not given)",
    "MEASURED_RESULT": 16
  },
  {
    "COMPOUND": "OC(Cn1cncn1)(Cn1cncn1)c1ccc(F)cc1F",
    "MEASURED_RESULT": 2
  },
  {
    "COMPOUND": "O=C(/C=C/C(=O)NC1Cc2ccccc2NC1=O)Nc1ccccc1 (stereo not given)",
    "MEASURED_RESULT": 4
  }
]

---

System: Cryptococcus neoformans
Experiment: Antifungal activity against Cryptococcus neoformans ATCC 32719 incubated for 48 hrs by two-fold broth dilution analysis
Type: functional

[
  {
    "COMPOUND": "O=C(/C=C/C(=O)NC1Cc2ccccc2NC1=O)Nc1ccc(F)cc1 (centres undefined)",
    "MIC / µg/mL": 8
  },
  {
    "COMPOUND": "O=C(/C=C/C(=O)NC1Cc2ccccc2NC1=O)Nc1ccc(Br)cc1 (centres undefined)",
    "MIC / µg/mL": 16
  },
  {
    "COMPOUND": "O=C(/C=C/C(=O)NC1Cc2ccccc2NC1=O)Nc1ccccc1[N+](=O)[O-] (centres undefined)",
    "MIC / µg/mL": 4
  },
  {
    "COMPOUND": "Cc1ccc(NC(=O)/C=C/C(=O)NC2Cc3ccccc3NC2=O)cc1 (centres undefined)",
    "MIC / µg/mL": 16
  },
  {
    "COMPOUND": "O=C(/C=C/C(=O)NC1Cc2ccccc2NC1=O)Nc1cccc(Br)c1 (centres undefined)",
    "MIC / µg/mL": 32
  },
  {
    "COMPOUND": "NC(=O)OC[C@H](O)[C@@H](O)[C@H](N)C(=O)N[C@H](C(=O)O)[C@H]1O[C@@H](n2cc(CO)c(=O)[nH]c2=O)[C@H](O)[C@@H]1O",
    "MIC / µg/mL": 4
  },
  {
    "COMPOUND": "Cc1cc(C)cc(NC(=O)/C=C/C(=O)NC2Cc3ccccc3NC2=O)c1 (centres undefined)",
    "MIC / µg/mL": 16
  },
  {
    "COMPOUND": "COc1ccc(NC(=O)/C=C/C(=O)NC2Cc3ccccc3NC2=O)cc1 (centres undefined)",
    "MIC / µg/mL": 16
  },
  {
    "COMPOUND": "O=C(/C=C/C(=O)NC1Cc2ccccc2NC1=O)Nc1cccc2ccccc12 (centres undefined)",
    "MIC / µg/mL": 4
  }
]

---

Tested on: Candida tropicalis
Experiment: Inhibition of Candida tropicalis ATCC 750 chitin synthase at 300 ug/ml using UDP-GlcNAc as substrate relative to control
Details: dose 300.0 µg/ml
# cutoff 50% applies to inhibition; >= gives 1, < gives -1

[
  {
    "COMPOUND": "Cc1ccc(NC(=O)/C=C/C(=O)NC2Cc3ccccc3NC2=O)cc1 (stereo not given)",
    "CATEGORY_LABEL": 1
  },
  {
    "COMPOUND": "O=C(/C=C/C(=O)NC1Cc2ccccc2NC1=O)Nc1ccc(F)c(F)c1 (stereo not given)",
    "CATEGORY_LABEL": 1
  },
  {
    "COMPOUND": "O=C(/C=C/C(=O)NC1Cc2ccccc2NC1=O)Nc1ccc([N+](=O)[O-])cc1 (stereo not given)",
    "CATEGORY_LABEL": 1
  },
  {
    "COMPOUND": "Cc1cc(C)cc(NC(=O)/C=C/C(=O)NC2Cc3ccccc3NC2=O)c1 (stereo not given)",
    "CATEGORY_LABEL": 1
  },
  {
    "COMPOUND": "Cc1ccccc1NC(=O)/C=C/C(=O)NC1Cc2ccccc2NC1=O (stereo not given)",
    "CATEGORY_LABEL": 1
  },
  {
    "COMPOUND": "O=C(/C=C/C(=O)NC1Cc2ccccc2NC1=O)Nc1ccc(Br)cc1 (stereo not given)",
    "CATEGORY_LABEL": -1
  },
  {
    "COMPOUND": "O=C(/C=C/C(=O)NC1Cc2ccccc2NC1=O)Nc1cccc2ccccc12 (stereo not given)",
    "CATEGORY_LABEL": -1
  },
  {
    "COMPOUND": "COc1ccc(NC(=O)/C=C/C(=O)NC2Cc3ccccc3NC2=O)cc1 (stereo not given)",
    "CATEGORY_LABEL": 1
  },
  {
    "COMPOUND": "Cc1cccc(NC(=O)/C=C/C(=O)NC2Cc3ccccc3NC2=O)c1 (stereo not given)",
    "CATEGORY_LABEL": 1
  },
  {
    "COMPOUND": "O=C(/C=C/C(=O)NC1Cc2ccccc2NC1=O)Nc1ccccc1Br (stereo not given)",
    "CATEGORY_LABEL": -1
  },
  {
    "COMPOUND": "NC(=O)OC[C@H](O)[C@@H](O)[C@H](N)C(=O)N[C@H](C(=O)O)[C@H]1O[C@@H](n2cc(CO)c(=O)[nH]c2=O)[C@H](O)[C@@H]1O [POLYOXIN B]",
    "CATEGORY_LABEL": 1
  },
  {
    "COMPOUND": "O=C(/C=C/C(=O)NC1Cc2ccccc2NC1=O)Nc1ccccc1 (stereo not given)",
    "CATEGORY_LABEL": -1
  }
]
